Recorded pKd values for a group of compounds are listed next.
- target or test system: DNA excision repair protein ERCC-1/DNA repair endonuclease XPF (Homo sapiens, UniProt P07992+Q92889)
- Sequence (P07992 whole entry): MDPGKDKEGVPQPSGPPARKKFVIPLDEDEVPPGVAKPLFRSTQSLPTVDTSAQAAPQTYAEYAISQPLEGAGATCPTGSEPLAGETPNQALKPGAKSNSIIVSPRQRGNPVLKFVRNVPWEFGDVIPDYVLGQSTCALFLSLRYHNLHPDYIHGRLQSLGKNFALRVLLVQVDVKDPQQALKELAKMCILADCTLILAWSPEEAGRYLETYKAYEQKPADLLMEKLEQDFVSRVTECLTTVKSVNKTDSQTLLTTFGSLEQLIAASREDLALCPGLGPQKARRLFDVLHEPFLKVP
- Sequence (Q92889 whole entry): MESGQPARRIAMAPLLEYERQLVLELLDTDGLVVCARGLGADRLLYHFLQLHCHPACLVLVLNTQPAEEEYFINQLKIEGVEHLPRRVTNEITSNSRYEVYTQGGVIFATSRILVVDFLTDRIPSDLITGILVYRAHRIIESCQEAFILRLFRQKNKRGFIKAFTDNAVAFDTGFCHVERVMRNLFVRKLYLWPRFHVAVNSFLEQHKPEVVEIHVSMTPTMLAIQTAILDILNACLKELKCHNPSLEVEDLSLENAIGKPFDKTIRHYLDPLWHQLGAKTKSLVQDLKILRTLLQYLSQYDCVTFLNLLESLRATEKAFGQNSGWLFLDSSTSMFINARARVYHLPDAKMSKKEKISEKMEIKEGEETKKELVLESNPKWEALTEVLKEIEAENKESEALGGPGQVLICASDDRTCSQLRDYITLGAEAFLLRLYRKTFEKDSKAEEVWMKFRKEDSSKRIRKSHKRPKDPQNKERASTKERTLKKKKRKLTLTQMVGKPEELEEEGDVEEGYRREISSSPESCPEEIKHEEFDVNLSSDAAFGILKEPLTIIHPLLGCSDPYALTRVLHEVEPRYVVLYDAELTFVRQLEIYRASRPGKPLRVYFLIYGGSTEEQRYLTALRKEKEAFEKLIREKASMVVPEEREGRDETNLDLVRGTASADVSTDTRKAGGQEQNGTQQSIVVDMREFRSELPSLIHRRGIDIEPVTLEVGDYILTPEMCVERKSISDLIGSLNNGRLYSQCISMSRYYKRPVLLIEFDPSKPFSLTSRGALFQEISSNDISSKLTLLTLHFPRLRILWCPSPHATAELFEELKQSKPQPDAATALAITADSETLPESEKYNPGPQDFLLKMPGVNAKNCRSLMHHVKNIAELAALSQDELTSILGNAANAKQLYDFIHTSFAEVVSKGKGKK
- run description: Binding affinity to ERCC1-XPF (unknown origin) by SPR assay
pKd: −log10 of the molar value.

smiles data | pKd
O=C(Cc1ccc(Cl)cc1Cl)NCc1ccc(O)c(O)c1 | 4.52
O=c1[nH]cc(-c2ccc(F)cc2)cc1O | 5.46

----------
Recorded IC50 values for a group of molecules are listed next.
- target or test system: DNA excision repair protein ERCC-1/DNA repair endonuclease XPF (Homo sapiens, UniProt P07992+Q92889)
- run description: Inhibition of ERCC1-XPF (unknown origin) by high-throughput fluorescence based in-vitro endonuclease assay
- Type: protein-complex assay
readout type: IC50

smiles data | measured
O=C(Cc1cccnc1)NCc1ccc(O)c(O)c1 | 25.6 µM
O=C(CNc1ccccc1)N/N=C/c1ccc(O)c(O)c1 | 2 µM
O=C(Cc1ccc(Cl)cc1)NCc1ccc(O)c(O)c1 | 1 µM
O=c1[nH]cc(-c2cccc(-n3cccn3)c2)cc1O | 5.2 µM
O=C(CNc1ccccc1)NCCc1ccc(O)c(O)c1 | 15.2 µM
O=S(=O)(Cc1ccc(Cl)cc1Cl)NCc1ccc(O)c(O)c1 | 2.9 µM
O=C(Cc1ccc(Cl)cc1Cl)NCc1ccc(O)c(O)c1 | 0.63 µM
O=C(NCc1ccc(O)c(O)c1)Nc1ccc(Cl)cc1 | 4.8 µM
O=c1[nH]cc(-c2ccc(F)cc2)cc1O | 8.7 µM
O=C(Cc1ccccc1)NCc1ccc(O)c(O)c1 | 13.3 µM
Cn1ncc2ccc(-c3c[nH]c(=O)c(O)c3)cc21 | 14.6 µM
CN(Cc1ccc(O)c(O)c1)C(=O)Cc1ccc(Cl)cc1Cl | 0.8 µM
O=c1[nH]cc(Br)cc1O | 24 µM
